- protocol: Cytotoxicity, tetrazolium salt (MTT) metabolic assay
- Assay type: cell-based
- assay.conditions: cytotoxic effects, read-out: TC50 (the source's name)
Reported CC50 values follow for various compounds

Worked examples, 5 compounds total:
CC[C@@H](NC(=O)N1C(=O)C[C@@H]1CSc1ccccn1)c1ccccc1; > 250 µM
CC[C@@H](NC(=O)N1C(=O)C[C@@H]1CN(C)Cc1ccccc1)c1ccccc1; > 147 µM
CC[C@@H](NC(=O)N1C(=O)[C@@H](C)[C@@H]1CSC1CCCCC1)c1ccccc1; > 250 µM
CC[C@@H](NC(=O)N1C(=O)C[C@@H]1CSc1nc(C)cc(C)n1)c1ccccc1; > 250 µM
CC[C@@H](NC(=O)N1C(=O)[C@@H](C)[C@@H]1CSc1nc(C)cc(C)n1)c1ccccc1; > 63 µM

Qu. Which value of CC50 has been reported for CC[C@@H](NC(=O)N1C(=O)C[C@@H]1[C@@H](C)Sc1ncccn1)c1ccccc1 in the records?
Ans. > 168 µM

Qu. Record: CN(Cc1ccc(C(=O)OCc2ccccc2)cc1)C(=O)N1C(=O)C[C@@H]1CSc1ncccn1
Ans. > 250 µM

Qu. Record: CN(Cc1ccc([N+](=O)[O-])cc1)C(=O)N1C(=O)C[C@@H]1CSc1ncccn1
Ans. > 118 µM

Qu. Record: CC[C@@H](NC(=O)N1C(=O)C[C@@H]1COC(=O)c1ccc2ccccc2c1)c1ccccc1
Ans. > 26 µM

Qu. Record: CC[C@@H](NC(=O)N1C(=O)C[C@@H]1COc1ccccn1)c1ccccc1
Ans. 151 µM

Qu. Record: CN(C)C(=O)c1ccc(CN(C)C(=O)N2C(=O)C[C@@H]2CSc2ncccn2)cc1
Ans. > 250 µM

Qu. Record: Cn1nnnc1SC[C@H]1CC(=O)N1C(=O)NC1CCc2ccccc21 (some centres unmarked)
Ans. 188 µM

Qu. Record: CC[C@@H](NC(=O)N1C(=O)C[C@@H]1CSc1nc2ccccc2s1)c1ccccc1
Ans. > 250 µM

Qu. Record: CC[C@@H](NC(=O)N1C(=O)[C@@H](C)[C@@H]1CSc1nnnn1C)c1ccccc1
Ans. > 250 µM
